biological target: MeCP2 (full-length) (human, UniProt P51608 1-486); assay: fluorescence anisotropy
Sequence (P51608 whole entry): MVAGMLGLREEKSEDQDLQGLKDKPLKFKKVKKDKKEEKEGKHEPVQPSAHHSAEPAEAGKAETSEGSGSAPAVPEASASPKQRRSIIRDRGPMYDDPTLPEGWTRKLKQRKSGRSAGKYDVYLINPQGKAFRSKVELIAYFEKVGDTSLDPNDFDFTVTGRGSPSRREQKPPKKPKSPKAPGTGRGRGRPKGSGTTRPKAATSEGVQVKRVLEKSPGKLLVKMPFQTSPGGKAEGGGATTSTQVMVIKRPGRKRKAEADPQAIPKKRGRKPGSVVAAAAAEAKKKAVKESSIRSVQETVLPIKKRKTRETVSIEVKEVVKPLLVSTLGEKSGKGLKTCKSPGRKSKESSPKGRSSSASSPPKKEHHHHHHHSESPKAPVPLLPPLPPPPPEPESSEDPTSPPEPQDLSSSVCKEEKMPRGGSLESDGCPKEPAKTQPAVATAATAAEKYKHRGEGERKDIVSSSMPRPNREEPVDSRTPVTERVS
endpoint: Kd (nM)
The response must be a number in nM with no trailing unit.

Value lookup for Kd; key = mCpG 20 bp duplex (m/m) (dsDNA, 5mC at CpG C of both strands (strand 1 C8, strand 2 C12)) DNA 1: TCTGGAACGGAATTCTTCTA DNA 2: TAGAAGAATTCCGTTCCAGA
80.3
